From: paper PMC5460017

- experimental target: T1, Mic60sol (Chaetomium thermophilum Mic60, residues 208–691) (Chaetomium thermophilum)
- T1 construct: Mic60 of Chaetomium thermophilum, UniProt G0SHY5, residues 208-691; codon-optimized synthetic cDNA in a modified pET28a; source: E. coli BL21 DE3, purified (Ni-NTA, His6 tag cleaved with PreScission protease, size-exclusion chromatography); not shown: His6, N-terminal, cleaved
- assay text: ITC; about 450 μM Mic19 construct in the syringe titrated into about 40 μM Mic60 construct in the cell; 10 °C; 20 mM HEPES/NaOH pH 7.5, 150 mM NaCl; untagged proteins
- condition notes: both partners purified
Bridge positions count the residues as written; N and C are the ends. Ends that are not written are not given here.
test readout: Kd (µM)
State just the number; it will be interpreted in µM.

Q: Looking for the measured Kd of RPLPESVEKARSEVVRCLREHDRRPLNCWQEVEAFKEEVRKLEKGWVDK (domain or fragment, disulfide 17-28) [isolated CHCH domain of Mic19 (Chaetomium thermophilum)] , can you help?
Result: 0.39
